# System: HeLa
# procedureDetails: Cellular uptake in human HeLa cells measured per mg of protein at 20.5 uM after 24 hrs by fluorescence measurements
# Format: ADME, cell-based
propertyLabel: Drug uptake (nmol/mg)

CC1(C)Cc2cc3[nH]c(cc4nc(cc5[nH]c(cc1n2)cc5C(=O)N1CC[N+](C)(C)CC1)CC4(C)C)cc3C(=O)N1CC[N+](C)(C)CC1.[Cl-].[Cl-] : 1.8
COCCN(CCOC)C(=O)c1cc2cc3nc(cc4[nH]c(cc5nc(cc1[nH]2)CC5(C)C)cc4C(=O)N(CCOC)CCOC)CC3(C)C : 15
CC1(C)Cc2cc3[nH]c(cc4nc(cc5[nH]c(cc1n2)cc5C(=O)O)CC4(C)C)cc3C(=O)O : 0.72
CC1(C)Cc2cc3[nH]c(cc4nc(cc5[nH]c(cc1n2)cc5C#CC[N+](C)(C)C)CC4(C)C)cc3C#CC[N+](C)(C)C.[Cl-].[Cl-] : 8.2
COCCC(CCOC)c1cc2cc3nc(cc4[nH]c(cc5nc(cc1[nH]2)CC5(C)C)cc4C(CCOC)CCOC)CC3(C)C : 11.7
CC1(C)Cc2cc3[nH]c(cc4nc(cc5[nH]c(cc1n2)cc5C(=O)NCCN)CC4(C)C)cc3C(=O)NCCN : 7.7
